Measurement Target: T1, NPNA8 peptide (Plasmodium falciparum (isolate 3D7)., not fully specified)
T1 construct: source: synthetic peptide (InnoPep Inc)
T1 chain: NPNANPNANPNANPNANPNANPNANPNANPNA
Assay Text: BLI
Experimental Conditions: both partners purified
Quantity Measured: Kd (nM)
Answers are plain numbers, in nM.

Examples from the recorded data:
# Binder, Output Unit, Kd
records = [
    ("337 Fab (Fab, V domains shown, also called mAb 337; source: ExpiCHO cells, purified (mAb Select PrismA or Capture Select, SEC)) VH: QVQLVESGGGVVQPGRSLRLSCAASGFSFSTYGMHWVRQAPGKGLEWVALIWHDGSKKFYSESVRGRFTISRDNSMDTLYLQMSSLRAEDTAVYYCARDGADYFDSTGGAFDIWGQGTMVIVSS VL: EIVMTQSPATLSVSPGERATLSCRASQSVSSNLAWYQQKPGQAPRLLIYGASTRATGIPARFSGSGSGTEFTLTISSLQSEDFATYYCQQYKTWWTFGQGTKVEIK", "nM", 39.4),
    ("356R Fab (Fab, V domains shown, also called germline-reverted 356; source: ExpiCHO cells, purified (mAb Select PrismA or Capture Select, SEC)) VH: QVQLVESGGGVVQPGRSLRLSCAASGFTFSSYGMHWVRQTPGKGLEWVAVIWHDGSNKFYADSVKGRFTISRDNSKNMIYLQMNSLRVEDTAIYYCARDSLFYDHDNSGYYGYWGQGTLVTVSS VL: EIVMTQSPATVSVSPGERATLSCRASQSVTSKLAWYQQKPGQAPRLLIYGASTRATGIPARFSGSGSGTEFTLTISSLQSEDFAVYFCQQYNNGFTFGPGTKVDFK", "nM", 124),
    ("227 Fab (Fab, V domains shown, also called mAb 227; source: ExpiCHO cells, purified (mAb Select PrismA or Capture Select, SEC)) VH: QVQLVQSGGGVVQPGRSLRLSCVTSGFTFPAFGMHWVRQAPGKGLEWVAVIWYDGSKKYYADSVRGRFTISRDNSRNTLYLQMHSLRAEDTAVYYCARVKNYESSGYSQCLDYWGQGVLVTVAS VL: QSVLTQPPSVSGAPGQRVTISCTGSSSNIGAGYDVHWYQQLPGTAPKLLIYGNGNRPSGVPDRFSGSKSGTSVSLAITGLQAEDEADYYCQSYDSSLSAFVFGTGTKVTVL", "nM", 80.3),
]

**Q:** Requested read-out: Kd. Entry: 239 Fab (Fab, V domains shown, also called mAb 239; source: ExpiCHO cells, purified (mAb Select PrismA or Capture Select, SEC)) VH: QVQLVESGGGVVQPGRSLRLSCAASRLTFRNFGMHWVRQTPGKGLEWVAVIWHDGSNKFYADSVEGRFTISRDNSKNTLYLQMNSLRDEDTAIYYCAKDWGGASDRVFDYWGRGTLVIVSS VL: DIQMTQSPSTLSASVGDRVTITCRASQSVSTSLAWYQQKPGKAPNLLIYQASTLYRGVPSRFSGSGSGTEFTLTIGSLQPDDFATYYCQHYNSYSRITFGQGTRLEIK
**A:** 7.2

Values were extracted from paper PMC10382551.
